SYSTEM: TetR (class B, Tn10) (UniProt P04483)
Sequence (P04483 whole entry): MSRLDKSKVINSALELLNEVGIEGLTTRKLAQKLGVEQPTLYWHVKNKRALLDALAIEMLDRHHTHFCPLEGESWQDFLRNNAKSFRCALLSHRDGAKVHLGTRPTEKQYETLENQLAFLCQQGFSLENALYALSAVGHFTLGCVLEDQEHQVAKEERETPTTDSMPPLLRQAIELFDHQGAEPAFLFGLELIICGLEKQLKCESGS
PROTOCOL SUMMARY: TetR repression strength (sort-seq, GFP reporter) (relative to tetO2 = 1); higher = stronger repression
TEST PARAMETERS: E. coli
Whole data set: some 18,000 sequences, median “TetR repression strength (sort-seq, GFP reporter)” near 0.23, cut for the highest 2% near 0.68. The full list was thinned out, with the highest values kept by preference.
TEST READOUT: TetR repression strength
The response must contain the number and no unit.

TCCCGTGCAGTCGTCGAGA :: 0.216
TCCCAGTGAGTGCTCGAGA :: 0.0229
TCCCAACTAGTCGTCGAGA :: 0.214

Q. Query (sequence): TCCCTGATAGTGCTCGAGA ; field requested: TetR repression strength
A. 0.215

Q. Fill in the blank: the reported TetR repression strength of TCCCAGCTAGTGAGAGAGA is ____.
A. 0.36

Q. Value lookup for TetR repression strength; key = TCCCAACTAGTCGAAGAGA
A. 0.267

Q. Look at this sequence and give its reported TetR repression strength. TCCCACGAAGTGCCTGAGA
A. 0.486

Q. Entry TCCCAGGGAGTGGAAGAGA has what TetR repression strength?
A. 0.235

Q. Form field: reported TetR repression strength of TCCCTATTAGTTGGGGAGA
A. 0.483

Q. Give the measured TetR repression strength of TCCCCACAAGTATCAGAGA .
A. 0.752

====

SYSTEM: TetR (class B, Tn10) (UniProt P04483)
PROTOCOL SUMMARY: TetR repression strength (sort-seq, GFP reporter) (relative to tetO2 = 1); higher = stronger repression
TEST PARAMETERS: E. coli
The full ranking holds about 18,000 sequences; the median of “TetR repression strength (sort-seq, GFP reporter)” is about 0.23, and the highest 2% start at about 0.68. For the sample, the highest values were picked, then their nearest neighbours and some sequences at random.
TEST READOUT: TetR repression strength
Provide a numeric answer; units are not to be included.

TCCCGAGCAGTTAGAGAGA :: 0.202
TCCCGCGAAGTTGGTGAGA :: 0.202
TCCCACGGAGTCACCGAGA :: 0.205
TCCCGAGGAGTAAGTGAGA :: 0.204
TCCCAAGAAGTGAAAGAGA :: 0.2

Q. So what does the record say about TetR repression strength for TCCCCGCAAGTACACGAGA ?
A. 0.292

Q. Quick check: TetR repression strength of TCCCTTTCAGTTAAGGAGA ?
A. 0.196

Q. # TetR repression strength lookup, item TCCCTAGTAGTTGTTGAGA
A. 0.308

Q. For the sequence TCCCGCGGAGTCCTCGAGA , what TetR repression strength is on record?
A. 0.294

====

# TetR repression strength listing for each entry below
SYSTEM: TetR (class B, Tn10)
PROTOCOL SUMMARY: TetR repression strength (sort-seq, GFP reporter) (relative to tetO2 = 1); higher = stronger repression
TEST PARAMETERS: E. coli
Whole data set: some 18,000 sequences, median “TetR repression strength (sort-seq, GFP reporter)” near 0.23, cut for the highest 2% near 0.68. The sample as a whole holds a higher share of the highest values than the screen did.
Lab note: jot down the number only; don't add units.

Field: example entries. Status: answers known.
TCCCTTTCAGTTTCAGAGA :: 0.206
TCCCCACTAGTGAAGGAGA :: 0.203

Q. What value of TetR repression strength has been recorded for this entry: TCCCTCTGAGTGGGTGAGA
A. 0.195

====

SYSTEM: TetR (class B, Tn10) (UniProt P04483)
PROTOCOL SUMMARY: TetR repression strength (sort-seq, GFP reporter) (relative to tetO2 = 1); higher = stronger repression
TEST PARAMETERS: E. coli
The full ranking holds about 18,000 sequences; the median of “TetR repression strength (sort-seq, GFP reporter)” is about 0.23, and the highest 2% start at about 0.68. The full list was thinned out, with the highest values kept by preference.
Measured TetR repression strength accompanies every entry in the list below.
# output: bare number, no unit

Solved cases (8 shown):
TCCCCACAAGTGGATGAGA :: 1.22
TCCCCTAAAGTGCGCGAGA :: 0.266
TCCCCCACAGTAAGAGAGA :: 0.158
TCCCTATCAGTGCGAGAGA :: 0.452
TCCCATGCAGTTTGGGAGA :: 1.07
TCCCTATCAGTAACTGAGA :: 0.474
TCCCCCACAGTGGATGAGA :: 0.294
TCCCTGTTAGTTTGTGAGA :: 0.4

Q. Enter reported TetR repression strength observed with TetR (class B, Tn10) (UniProt P04483) for TCCCTGGGAGTTAGAGAGA
A. 0.832

Q. Return TetR repression strength measured with TetR (class B, Tn10) (UniProt P04483) given this sequence: TCCCCTAGAGTGCGCGAGA
A. 0.901

Q. Find the measured TetR repression strength: item TCCCTCTAAGTGTCCGAGA , target or system TetR (class B, Tn10) (UniProt P04483).
A. 0.512

Q. Give TetR (class B, Tn10) (UniProt P04483) TetR repression strength for TCCCGTCAAGTACGCGAGA
A. 0.196

Q. Requested read-out TetR repression strength, target or system TetR (class B, Tn10) (UniProt P04483), entry TCCCATGCAGTTGGGGAGA
A. 0.216

Q. API: value(readout=TetR repression strength, system=TetR (class B, Tn10) (UniProt P04483)) for record TCCCCGAGAGTCCTAGAGA
A. 0.235

====

SYSTEM: TetR (class B, Tn10)
PROTOCOL SUMMARY: TetR repression strength (sort-seq, GFP reporter) (relative to tetO2 = 1); higher = stronger repression
TEST PARAMETERS: E. coli
Whole data set: some 18,000 sequences, median “TetR repression strength (sort-seq, GFP reporter)” near 0.23, cut for the highest 2% near 0.68. Many of the other results were omitted from the sample, so the highest values are more common in it than they were.
Think of 0.4 as a floor: if TetR repression strength stands on it or above, it is condition met; beneath it, condition not met.

TCCCGACAAGTGATAGAGA :: condition met
TCCCGAGAAGTGATAGAGA :: condition met
TCCCGATAAGTGAGTGAGA :: condition not met
TCCCGCTCAGTGTTAGAGA :: condition met
TCCCGATGAGTCAGTGAGA :: condition not met

Please turn your attention to the following entry.
Q. Is it the case that TCCCTTTGAGTAGGTGAGA has TetR repression strength reaching or exceeding 0.4?
A. condition not met

====

SYSTEM: TetR (class B, Tn10) (UniProt P04483)
PROTOCOL SUMMARY: TetR repression strength (sort-seq, GFP reporter) (relative to tetO2 = 1); higher = stronger repression
TEST PARAMETERS: E. coli
The full ranking holds about 18,000 sequences; the median of “TetR repression strength (sort-seq, GFP reporter)” is about 0.23, and the highest 2% start at about 0.68. Many of the other results were omitted from the sample, so the highest values are more common in it than they were.
TEST READOUT: TetR repression strength
Respond with the number and no other words.

Known TetR repression strength results, listed for orientation:
TCCCTATCAGTTATCGAGA :: 0.859
TCCCTTTAAGTAATAGAGA :: 0.44
TCCCGTTTAGTGGGTGAGA :: 0.306
TCCCCCTCAGTTTGCGAGA :: 0.518
TCCCTTTCAGTATGGGAGA :: 0.422

Q. Please look up its TetR repression strength: TCCCTTTCAGTGAGAGAGA
A. 0.566

Q. Any idea what its TetR repression strength is? The sequence is TCCCTGTGAGTCTCAGAGA
A. 0.365

====

SYSTEM: TetR (class B, Tn10) (UniProt P04483)
PROTOCOL SUMMARY: TetR repression strength (sort-seq, GFP reporter) (relative to tetO2 = 1); higher = stronger repression
TEST PARAMETERS: E. coli
Over roughly 18,000 sequences, “TetR repression strength (sort-seq, GFP reporter)” has its median near 0.23; the highest 2% begin near 0.68. This excerpt belongs to a sample that is enriched for the highest values.
Criterion: TetR repression strength meeting or surpassing 0.4. Met: fulfilled. Not met: not fulfilled.

Before answering, review these 2 worked examples.
TCCCACATAGTATGTGAGA :: fulfilled
TCCCTGTAAGTTATAGAGA :: not fulfilled

Q. Could you verify whether the entry TCCCACCGAGTAGGCGAGA shows TetR repression strength of no less than 0.4?
A. not fulfilled

Q. Decide: TetR repression strength of TCCCTCTCAGTTATAGAGA >= 0.4?
A. fulfilled

Q. Does TCCCTTGCAGTGATAGAGA have a reported TetR repression strength of at least 0.4?
A. fulfilled

Q. Assess whether reported TetR repression strength for TCCCAGCGAGTAGAAGAGA sits at 0.4 or higher.
A. not fulfilled
